- System under test: Peroxisome proliferator-activated receptor gamma (Homo sapiens) (UniProt P37231)
- Sequence (P37231 whole entry, looked up): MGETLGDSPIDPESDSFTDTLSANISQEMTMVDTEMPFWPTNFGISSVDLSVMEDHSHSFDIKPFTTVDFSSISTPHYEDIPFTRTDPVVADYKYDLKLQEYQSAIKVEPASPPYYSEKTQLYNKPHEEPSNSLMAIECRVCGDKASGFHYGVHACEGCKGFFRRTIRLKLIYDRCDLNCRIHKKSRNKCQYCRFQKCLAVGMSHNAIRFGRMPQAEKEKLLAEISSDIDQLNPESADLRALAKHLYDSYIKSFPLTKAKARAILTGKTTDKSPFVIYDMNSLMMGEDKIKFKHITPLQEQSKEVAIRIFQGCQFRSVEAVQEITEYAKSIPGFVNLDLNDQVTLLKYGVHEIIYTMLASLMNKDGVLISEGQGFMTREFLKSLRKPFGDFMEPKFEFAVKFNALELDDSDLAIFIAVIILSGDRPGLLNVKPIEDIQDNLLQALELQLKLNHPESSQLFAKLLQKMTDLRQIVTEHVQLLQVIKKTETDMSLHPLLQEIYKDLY
- Assay explanation: partial agonism at human PPARgamma receptor – cell-based, luciferase reporter, luminescence, primary screen (AID 504452);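 also: Cos-1 cells carrying PPARgamma and a response element luciferase reporter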
- Measurement parameters: cell-based PPARg luciferase reporter, at 5 µM, stronger effect = higher value; measured here: relative to full agonist control
Listed compounds paired with reported activation (% of full agonist control)
Provide only the numeric value, understood in %.

Sample answers from the record:
Cc1cccn2c(CN3CCNC(=O)CC3)c(C(=O)N(C)CCc3ccccc3)nc12 = 36.3
O=C1CC(NS(=O)(=O)c2ccc3ccccc3c2)CN1c1ccccc1 (stereo not given) = 31.7

Which activation (% of full agonist control) is reported for this compound? Cc1cc(N2C(=O)C(=O)/C(=C(/O)c3ccc(F)cc3)C2c2ccc(F)cc2)no1 (stereo not given)
31.8

Which activation (% of full agonist control) is reported for this compound? "COc1cccc(NC(=O)c2ccc3c(c2)N(CC(=O)N2CCOCC2)C(=O)C(C)(C)O3)c1"
32.5

Which activation (% of full agonist control) is reported for this compound? COc1ccc(/C=C(\NC(=O)c2ccco2)C(=O)NC(Cc2ccccc2)C(=O)O)cc1 (stereo not given)
31.3

Recorded values, source PubChem BioAssay AID504452.
